Ref: PubChem BioAssay (NCI)

# key: entry, value: growth
Test system: IGROV1 ovarian
test.description: NCI-60 one-dose screen, 48 h (100 = growth as untreated, 0 = no growth, -100 = all killed)
run.conditions: 10 µM
Compounds without any hit were thinned out: in the full panel of roughly 83,000, 20% have a hit.

| compound | assayed.system | growth [%] |
| --- | --- | --- |
| C[N+](C)(C)C(=O)c1ccccc1 | IGROV1 ovarian | 115 |
| CS(=O)CC1=NC(=N)N=C1CS(C)=O (stereo not drawn) | IGROV1 ovarian | 113 |
| Clc1ccc(-c2n[nH]c3c2Cc2ccccc2-3)cc1Cl | IGROV1 ovarian | 63 |
| CC(=O)NCc1cc(C)c(C)cc1C | IGROV1 ovarian | 104 |
| N#CCCc1ccc(O)cc1 | IGROV1 ovarian | 116 |
| Cc1cc(=O)[nH]c(NN=C2CCCC2)n1 | IGROV1 ovarian | 107 |
| Cc1nc2c(ccc3ccccc32)s1 | IGROV1 ovarian | 109 |
| NC(C(=O)O)C(O)c1ccco1 (stereo not drawn) | IGROV1 ovarian | 124 |
| Cc1ccc(C(=O)c2ccccc2)c(C)c1 | IGROV1 ovarian | 101 |
| CCN(CC)CCCC(C)Nc1ccnc(/C=C/c2ccc(Cl)cc2)c1 (stereo not drawn) | IGROV1 ovarian | 41.2 |
| CC1CC(O)CC(C)(C)C1 (stereo not drawn) | IGROV1 ovarian | 103 |
| CCOC(=O)Nc1nn[nH]n1 | IGROV1 ovarian | 110 |
| OC(c1ccccn1)C(O)c1ccccn1 (stereo not drawn) | IGROV1 ovarian | 97.9 |
| CN(C)c1ccc(S(=O)(=O)O)cc1 | IGROV1 ovarian | 118 |
| Nc1ccccc1SC(CC(=O)c1ccccc1)c1c(Cl)cccc1Cl (stereo not drawn) | IGROV1 ovarian | 62.7 |
| COc1cc2cc(OC(C)=O)c3cc4c(cc3c2c(OC)c1OC)OCO4 | IGROV1 ovarian | 107 |
| CN(C)Cc1cc(C(C)(C)CC(C)(C)C)ccc1O | IGROV1 ovarian | 85.7 |
| CCCCCC(C)(CC(=O)O)CC(=O)O | IGROV1 ovarian | 110 |
| CCCCCCCCCCC1CO1 (stereo not drawn) | IGROV1 ovarian | 111 |
| COc1cc([C@@H]2c3cc4c(cc3[C@H](O)[C@H]3COC(=O)[C@H]23)OCO4)cc(OC)c1OC | IGROV1 ovarian | 31.6 |
| NC(=O)N/N=C\c1ccco1 | IGROV1 ovarian | 99.6 |
| CCOC(=O)CSc1c([N+](=O)[O-])ncn1C | IGROV1 ovarian | 95.5 |
| CCc1ccc(/C(C#N)=C/C=C/c2ccccc2)cc1 | IGROV1 ovarian | 35.9 |
| COC(=O)CCCCC1=CCC2C(=O)C=C(O)C2C1 (stereo not drawn) | IGROV1 ovarian | 103 |
| CC(C)COC(=O)COC(=O)OCCOCCOC(=O)OCC(=O)OCC(C)C | IGROV1 ovarian | 105 |
| CCCC1(c2ccccc2)NC(=O)NC1=O (stereo not drawn) | IGROV1 ovarian | 128 |
| OCC(O)C(O)C(O)C(O)/C=N/O (stereo not drawn) | IGROV1 ovarian | 107 |
| COc1cc(CN)ccc1O | IGROV1 ovarian | 78.7 |

###

Tested on: MDA-MB-231 breast
test.description: NCI-60 one-dose screen, 48 h (100 = growth as untreated, 0 = no growth, -100 = all killed)
run.conditions: 10 µM
The panel holds about 83,000 compounds, 20% with a hit somewhere; the sample as a whole holds those more often.
growth listing for selected compounds.

| compound | growth (%) |
| --- | --- |
| CCC(C#N)(CC)c1ccccc1 | 97.4 |
| S=C1NCc2cncnc2N1 | 132 |
| CC(=O)OCCC(C)CCC=C(C)C (stereo not drawn) | 98.1 |
| O=C1C=C(O)C(=O)C=C1O | 104 |
| CC(CN1CCCCC1)NC(=O)c1scnc1-c1ccccc1 (stereo not drawn) | 114 |
| COc1ccc(C)cc1OC | 107 |
| Cc1ccccc1N=C(c1ccccc1)C1C(=O)c2ccccc2C1=O | 98.7 |
| CCOC(=O)CCCS(C)(=O)=O | 99 |
| Nc1nc(N)c2cc(S(=O)(=O)c3cccc(C(F)(F)F)c3)ccc2n1 | 67.9 |
| Cc1ccc(C(=O)NC2c3ccccc3Oc3ccccc32)cc1 | 58.4 |
| COc1ccccc1N=Nc1c(O)ccc2cc(S(=O)(=O)O)ccc12 | 93.2 |
| COc1cc(-c2ccc(NC(=O)NC3CC3)c(OC)c2)ccc1NC(=O)NC1CC1 | 71.1 |
| Cc1nc2c(ccc3ccccc32)s1 | 107 |
| CN(C)C(C)(C)CC(C)(C)C | 101 |
| [O-][N+](=Nc1cccc(Cl)c1)c1cccc(Cl)c1 | 102 |
| CC(=O)Nc1cccc(NC(C)=O)n1 | 107 |
| CCOC(=O)CSc1c([N+](=O)[O-])ncn1C | 96.5 |
| O=C(Nc1cc(-c2ccccc2)[nH]n1)c1ccc(Cl)cc1 | 114 |
| CCCCC(=O)c1ccc(OC)cc1 | 109 |
| CC12CC3CC1C(C(=O)O2)C3C(=O)O (stereo not drawn) | 109 |
| O=[N+]([O-])c1cccc(C(F)(F)F)c1 | 98 |
| O=C1OC(=O)C2C1C1(Cl)C(Cl)=C(Cl)C2(Cl)C2C(=O)OC(=O)C21 (stereo not drawn) | 122 |
| CC(C)COC(=O)COC(=O)OCCOCCOC(=O)OCC(=O)OCC(C)C | 113 |

###

System: SK-MEL-5 melanoma
test.description: NCI-60 one-dose screen, 48 h (100 = growth as untreated, 0 = no growth, -100 = all killed)
run.conditions: 10 µM
Compounds without any hit were thinned out: in the full panel of roughly 83,000, 20% have a hit.

| compound | readout.units | growth |
| --- | --- | --- |
| Oc1ccccc1O | % | 89.3 |
| O=C1OC(=O)C2C1C1(Cl)C(Cl)=C(Cl)C2(Cl)C2C(=O)OC(=O)C21 (stereo not given) | % | 103 |
| Nc1ncnc2[nH]ncc12 | % | 15 |
| O=C(O)/C=C/c1ccc2c(c1)CCC2 | % | 105 |
| O=C(CN1CCNCC1)N1CCOCC1 | % | 110 |

###

System: CCRF-CEM leukemia
test.description: NCI-60 one-dose screen, 48 h (100 = growth as untreated, 0 = no growth, -100 = all killed)
run.conditions: 10 µM
This is part of a sample that, as a whole, favours compounds with a hit. Of some 83,000 tested, about 20% had one in any assay. Active and inactive are the calls of the source. The calls were made as follows: active = growth percent below 10; inactive = the rest.
measured.metric: growth

| molecule | assayed.system | measured.metric | reported.measurement |
| --- | --- | --- | --- |
| O=S(=O)(O)C(Nc1ccccc1)c1ccccc1 (centres undefined) | CCRF-CEM leukemia | growth | 115% (inactive) |
| CCc1nn(Cc2ccccc2)c2nc(C)c(CCc3ccccc3)c(Cl)c12 | CCRF-CEM leukemia | growth | 80.1% (inactive) |
| CCOC(=O)C(C#N)Cc1ccccc1 (centres undefined) | CCRF-CEM leukemia | growth | 102% (inactive) |
| Cc1ccc(S(=O)(=O)O)c(C)c1 | CCRF-CEM leukemia | growth | 100% (inactive) |
| C=CC(=O)OCCCCCCCC | CCRF-CEM leukemia | growth | 83% (inactive) |
| COc1cc2c(cc1O)CC[C@@H]1C2CC[C@@]2(C)C1CC[C@@H]2O (some centres undefined) | CCRF-CEM leukemia | growth | 8.85% (active) |
| Nc1ccc(N=Nc2ccc(S(=O)(=O)O)cc2)c2ccccc12 | CCRF-CEM leukemia | growth | 102% (inactive) |
| NC(C(=O)O)c1ccc([N+](=O)[O-])cc1 (centres undefined) | CCRF-CEM leukemia | growth | 98.5% (inactive) |
| CCOC(=O)C(CCC(C)C)C(=O)OCC | CCRF-CEM leukemia | growth | 99.9% (inactive) |
| O=P(O)(O)OCC(O)CO (centres undefined) | CCRF-CEM leukemia | growth | 100% (inactive) |
| CCOC(=O)C1OC1c1ccccc1 (centres undefined) | CCRF-CEM leukemia | growth | 109% (inactive) |
| OCC1OC(OC2C(O)C(CO)OC2(CO)OC2OC(CO)C(O)C(O)C2O)C(O)C(O)C1O (centres undefined) | CCRF-CEM leukemia | growth | 88.6% (inactive) |
| COC(=O)/C=C1\Sc2cc(F)ccc2NC1=O | CCRF-CEM leukemia | growth | 87.9% (inactive) |
| O=c1[nH]n(-c2ccccc2)c(=O)cc1Cl | CCRF-CEM leukemia | growth | 106% (inactive) |
| CC1(C)OC(=O)C(c2ccsc2)C(=O)O1 | CCRF-CEM leukemia | growth | 106% (inactive) |
| CC(C)OC(C(=O)O)c1ccccc1 (centres undefined) | CCRF-CEM leukemia | growth | 91.9% (inactive) |
| CC(=Nc1ccccc1)C1=C(O)C(Cc2cccc(F)c2)NC1=O (centres undefined) | CCRF-CEM leukemia | growth | 6.2% (active) |
| CCCCCCCCO | CCRF-CEM leukemia | growth | 108% (inactive) |
| O=C(NN=C1CCCCC1)C(=O)NN=C1CCCCC1 | CCRF-CEM leukemia | growth | 85.6% (inactive) |
| CCOC(=O)C(O)C(O)C(=O)OCC (centres undefined) | CCRF-CEM leukemia | growth | 107% (inactive) |
| C/C(=C\c1ccc([N+](=O)[O-])cc1)C(=O)O | CCRF-CEM leukemia | growth | 87.6% (inactive) |
| CC1(O)OC(COc2ccc(Cl)cc2)COC1O (centres undefined) | CCRF-CEM leukemia | growth | 98.7% (inactive) |
| Cc1cc(=O)[nH]c(NN=C2CCCC2)n1 | CCRF-CEM leukemia | growth | 102% (inactive) |
| COc1ccc(C2(O)CCCCC2)cc1 | CCRF-CEM leukemia | growth | 96.1% (inactive) |
| C[C@]12CC[C@@H]3c4ccc(OCC(=O)O)cc4CC[C@H]3[C@@H]1CCC2=O | CCRF-CEM leukemia | growth | 116% (inactive) |
| Cc1cc(C(O)(c2ccc(Nc3ccccc3)cc2)c2ccc(Nc3ccc(S(=O)(=O)O)cc3)cc2)ccc1N (centres undefined) | CCRF-CEM leukemia | growth | 2.35% (active) |
| C[N+](C)=c1ccc2nc3c(cc(Nc4ccccc4)c4ccccc43)oc-2c1 | CCRF-CEM leukemia | growth | 57.8% (inactive) |
| CCOC(=O)c1cc2cccc(OC)c2oc1=O | CCRF-CEM leukemia | growth | 91.7% (inactive) |
| CCOC(=O)C(=O)C=P(c1ccccc1)(c1ccccc1)c1ccccc1 | CCRF-CEM leukemia | growth | 99.9% (inactive) |
| CN(C)c1ccc(CNC(C(=O)c2ccccc2)c2ccccc2)cc1 (centres undefined) | CCRF-CEM leukemia | growth | 90.9% (inactive) |
| COc1cc2c3c(n(C)c(=O)c2cc1OC)-c1cc2c(cc1C3=O)OCO2 | CCRF-CEM leukemia | growth | 29.5% (inactive) |
| CC(=O)c1ccc(N=C(C#N)C2=C(O)c3ccccc3C2=O)cc1 | CCRF-CEM leukemia | growth | 104% (inactive) |
| Oc1ccccc1O | CCRF-CEM leukemia | growth | 27.1% (inactive) |
| COc1ccccc1NC(=O)c1cc2cc(Br)ccc2cc1O | CCRF-CEM leukemia | growth | -4.98% (active) |
| CC(C)COC(=O)COC(=O)OCCOCCOC(=O)OCC(=O)OCC(C)C | CCRF-CEM leukemia | growth | 106% (inactive) |
| O=C(O)C(c1ccccc1)C(O)c1ccccc1 (centres undefined) | CCRF-CEM leukemia | growth | 99.8% (inactive) |
| COC(=O)c1ccccc1Br | CCRF-CEM leukemia | growth | 109% (inactive) |
| S=c1[nH]ccn1-c1ccccc1Cl | CCRF-CEM leukemia | growth | 96.6% (inactive) |
| Cc1ccc(Cl)cc1NC(=O)N(C)CCO | CCRF-CEM leukemia | growth | 98.7% (inactive) |
| CC(=O)c1ccc2c(ccc3ccccc32)c1 | CCRF-CEM leukemia | growth | 86.2% (inactive) |
| FC(F)(F)c1ccc2c(c1)N(CCCN1CCN(C3CC3)CC1)c1ccccc1S2 | CCRF-CEM leukemia | growth | 26.5% (inactive) |
| NC(C(=O)O)C(O)c1ccco1 (centres undefined) | CCRF-CEM leukemia | growth | 94% (inactive) |
| Cc1cc2nc(CO)[nH]c2cc1C | CCRF-CEM leukemia | growth | 93.6% (inactive) |
| CN(C)CCN(C)CC(C)(C)C(=O)/C=C/c1ccc(Cl)cc1 | CCRF-CEM leukemia | growth | -9.31% (active) |
| OCC(O)C(O)C(O)C(O)/C=N/O (centres undefined) | CCRF-CEM leukemia | growth | 81.6% (inactive) |
| Cc1cc(=O)cc(C)n1-c1ccccc1 | CCRF-CEM leukemia | growth | 92.4% (inactive) |
| COc1ccc(NC(=O)CCl)cc1 | CCRF-CEM leukemia | growth | 50.5% (inactive) |
| CC(=O)OC(C(=O)O)c1ccccc1 (centres undefined) | CCRF-CEM leukemia | growth | 86% (inactive) |
| CCOC(=O)Nc1nn[nH]n1 | CCRF-CEM leukemia | growth | 95% (inactive) |
| O=C(O)CCCC(=O)O | CCRF-CEM leukemia | growth | 101% (inactive) |
| CCOc1ccc(/C=N/N=C(N)N)cc1OCC | CCRF-CEM leukemia | growth | 95.4% (inactive) |
| CCC/C=C(\C)C(C)(C#N)C(=O)OCC (centres undefined) | CCRF-CEM leukemia | growth | 90.4% (inactive) |
| O=C1C[C@H](c2ccccc2)[C@H](c2ccccc2)C1 | CCRF-CEM leukemia | growth | 95.1% (inactive) |
| C#CC(C)(O)c1ccc(Cl)cc1 (centres undefined) | CCRF-CEM leukemia | growth | 103% (inactive) |
